# Tested on: OVCAR-3
# procedureText: NCI tumour cell line growth inhibition, 48 h
The source made the active and inactive calls. No stated cut-off is given here; in the data, active = GI50 up to about 1.1 µM and inactive = higher.
readoutName: GI50

>>> reading("CC(C)O/N=C/c1cc(NC(=S)OC(C)C)ccc1Cl")
"32.5 µM (inactive)"
>>> reading("CC12CC(=O)Nc3ccccc3N1C(c1ccccc1)=NO2 (stereo unspecified)")
"> 100 µM (inactive)"
>>> reading("CSC1(Cc2ccccn2)C(=O)Nc2cccc([N+](=O)[O-])c21 (stereo unspecified)")
"> 100 µM (inactive)"
>>> reading("Clc1ccc2c(c1)CC1C[N+]3=C(CCCCC3)C1=C2 (stereo unspecified)")
"59 µM (inactive)"
>>> reading("Cc1ccc(NC(S)=Nc2c(C)n(C)n(-c3ccccc3)c2=O)cc1")
"> 100 µM (inactive)"
>>> reading("CC1(C)OC(=O)C(=Cc2ccc(O)cc2)C(=O)O1")
"> 100 µM (inactive)"
>>> reading("Cc1ccc(-c2nnc(CCCCCCCCc3nnc(-c4ccc(C)cc4O)n3N)n2N)c(O)c1")
"> 100 µM (inactive)"
>>> reading("N#CC(C#N)=CNC(N)=S")
"1.5 µM (inactive)"
>>> reading("O=S(=O)(O)c1ccc2c(/N=N/c3c(O)ccc4ccccc34)cccc2c1")
"88.9 µM (inactive)"
>>> reading("Cc1nc2c(Br)cc(Br)cc2c(=O)n1-c1ccccc1NC1OC(CO)C(O)C(O)C1O (stereo unspecified)")
"> 100 µM (inactive)"
>>> reading("CC(=O)Nc1ccc2cc3c(nc2n1)c1cccnc1n3S(=O)(=O)c1ccccc1")
"> 100 µM (inactive)"

====

# Test system: HOP-62
# procedureText: NCI tumour cell line growth inhibition, 48 h
Calls of active or inactive are those of the source. Cut-off read from the data, not from the text of the source: active = GI50 up to about 1.1 µM and inactive = higher.
Reported GI50 by item:
readoutName: GI50

>>> reading("CCOC(=O)C(Cc1ccc2c(c1)CCC2)Cc1ccc2c(c1)CCC2")
"> 100 µM (inactive)"
>>> reading("S=C1NC2=C(COC/C2=C\\c2ccccc2Cl)C(c2ccccc2Cl)N1 (configuration not stated)")
"61.4 µM (inactive)"
>>> reading("CC(=O)O/C=C\\OC1CCCC1(c1ccccc1)c1ccccc1 (configuration not stated)")
"12.4 µM (inactive)"
>>> reading("C/C(=N\\O)C(CN1CCCCC1)C(c1ccccc1)c1c(O)c2ccccc2oc1=O (configuration not stated)")
"> 100 µM (inactive)"
>>> reading("Cc1nc2cccc([N+](=O)[O-])c2c(NCCCN(C)C)c1C")
"28.9 µM (inactive)"
>>> reading("COC(=O)c1cc(-c2c[nH]cc2C(=O)OCc2ccccc2)cn1S(=O)(=O)c1ccc(C)cc1")
"> 100 µM (inactive)"
>>> reading("Nc1cc2nc(O)c(O)nc2cc1N")
"> 100 µM (inactive)"
>>> reading("COC(=O)N/N=C(\\C)c1c(O)cc(C)oc1=O")
"36.2 µM (inactive)"
>>> reading("O=C1CN(c2ccccc2)C(=O)C1C(=O)Nc1ccc(Cl)c(Cl)c1 (configuration not stated)")
"2.22 µM (inactive)"
>>> reading("O=C(Nc1ccc(N2C(=O)CSC2c2cccs2)cc1)c1ccc(N2C(=O)CSC2c2cccs2)cc1 (configuration not stated)")
"95.3 µM (inactive)"
>>> reading("O=S(=O)(O)c1ccc2c(/N=N/c3c(O)ccc4ccccc34)cccc2c1")
"> 100 µM (inactive)"
>>> reading("OCc1ccc2c(c1)CC1(Cc3ccccc3C1)C2")
"25.6 µM (inactive)"
>>> reading("Cc1ccc(NC(=O)CC(=O)N2N=C(N3CCCCC3)CC2c2ccccc2)cc1 (configuration not stated)")
"> 100 µM (inactive)"
>>> reading("CCOC(=O)c1c(N2CCOCC2)[nH]c(=O)c(C(c2ccco2)c2c(O)c(C(=O)OCC)c(N3CCOCC3)[nH]c2=O)c1O")
"> 100 µM (inactive)"
>>> reading("CC1=C(C(N)=O)C(c2ccncc2)C(C#N)C(=O)N1 (configuration not stated)")
"> 100 µM (inactive)"
>>> reading("O=C(/C=C\\c1ccsc1)c1ccccc1")
"16.1 µM (inactive)"
>>> reading("NCCC(N)C(=O)O (configuration not stated)")
"> 100 µM (inactive)"
>>> reading("O=C1OCCC[C@H]2O[C@@H](COCc3ccccc3)C[C@@H]12")
"> 100 µM (inactive)"
>>> reading("CCOC(=O)[C@@H]1C[C@@H]1c1ccc(O)c(O)c1")
"17.6 µM (inactive)"
>>> reading("O=C(n1c(=O)n(-c2ccc([N+](=O)[O-])cc2)c(=O)n1C(=O)C(Cl)(Cl)Cl)C(Cl)(Cl)Cl")
"> 100 µM (inactive)"
>>> reading("COc1cc2c(cc1OC)C(OC)N(C)c1c-2ccc2cc3c(cc12)OCO3 (configuration not stated)")
"1.4 µM (inactive)"
>>> reading("CCc1nn(CN2CCN(C)CC2)c(=S)n1/N=C\\c1ccc(-c2ccc([N+](=O)[O-])cc2)o1")
"28.4 µM (inactive)"
